# system.name: Dual 3',5'-cyclic-AMP and -GMP phosphodiesterase 11A (Homo sapiens)
# Sequence (Q9HCR9 whole entry): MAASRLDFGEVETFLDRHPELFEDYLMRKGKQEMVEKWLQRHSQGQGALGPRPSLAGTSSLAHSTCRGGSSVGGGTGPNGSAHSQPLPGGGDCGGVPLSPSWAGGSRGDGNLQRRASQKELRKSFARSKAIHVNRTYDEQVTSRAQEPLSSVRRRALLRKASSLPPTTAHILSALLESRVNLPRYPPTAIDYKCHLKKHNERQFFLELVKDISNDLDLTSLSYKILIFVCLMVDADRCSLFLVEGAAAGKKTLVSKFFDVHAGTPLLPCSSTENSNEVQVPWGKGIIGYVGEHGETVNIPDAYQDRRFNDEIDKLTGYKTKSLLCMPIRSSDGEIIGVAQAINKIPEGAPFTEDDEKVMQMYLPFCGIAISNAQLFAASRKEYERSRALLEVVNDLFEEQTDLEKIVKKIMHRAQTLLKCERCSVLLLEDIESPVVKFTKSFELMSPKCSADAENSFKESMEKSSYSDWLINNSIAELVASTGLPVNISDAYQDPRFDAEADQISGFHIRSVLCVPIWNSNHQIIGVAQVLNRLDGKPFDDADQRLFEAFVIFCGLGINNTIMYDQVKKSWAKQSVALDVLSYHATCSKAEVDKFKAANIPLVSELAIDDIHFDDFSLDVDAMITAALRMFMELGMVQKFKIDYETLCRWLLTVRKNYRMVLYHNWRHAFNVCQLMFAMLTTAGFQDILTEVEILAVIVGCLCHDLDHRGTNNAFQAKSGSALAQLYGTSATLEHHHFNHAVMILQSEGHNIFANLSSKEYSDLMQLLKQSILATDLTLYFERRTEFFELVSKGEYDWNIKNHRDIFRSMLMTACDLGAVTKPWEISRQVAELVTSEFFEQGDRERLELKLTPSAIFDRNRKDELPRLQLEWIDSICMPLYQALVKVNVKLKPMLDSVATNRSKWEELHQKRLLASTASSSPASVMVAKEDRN
observable: IC50 (nM)

{"compound.structure": "COc1ccc(-c2nc(C(=O)N3CCN(C(=O)c4cc(C)[nH]n4)CC3)c(CN)o2)c2ccc(C(F)(F)F)nc12", "u": "nM", "obs.value": 1000}
{"compound.structure": "COc1cc(OC)nc(N2CCN(C(=O)c3nc(-c4ccc(OC)c5nc(C(F)(F)F)ccc45)oc3CN)CC2)n1", "u": "nM", "obs.value": 970}
{"compound.structure": "COc1ccc(-c2nc(C(=O)N3CCN(C(=O)OC(C)(C)C)CC3)c(CN)o2)c2ccc(C(F)(F)F)nc12", "u": "nM", "obs.value": 600}

[a] COc1ccc(-c2nc(C(=O)N3CCC4(CC3)C(=O)NCN4c3ccccc3)c(CN)o2)c2ccc(C(F)(F)F)nc12
[b] COc1ccc(-c2nc(C(=O)N3CCN(c4ncccn4)CC3)c(CN)o2)c2ccc(C(F)(F)F)nc12
Request: Higher IC50 between a and b ? State your choice using its label.
Response: b
